- EXPERIMENTAL PROTOCOL: Solubility in water and bio-relevant media
- Format: physicochemical
- MEASUREMENT PARAMETERS: thermodynamic from solid; Water, 24 hours, room temperature, 2 mg/mL loading
READOUT KIND: solubility at 24 h (µg/mL)
Answer format: numeric, µg/mL implied, no suffix.

Query :: Could you tell me which solubility at 24 h is on file for N#Cc1ccc(COc2cccc(N3CCN(Cc4nc5ccc(C(=O)O)cc5n4C[C@@H]4CCO4)CC3)n2)nc1 [Comparative Example 1] ?
Result :: 106

* * *

- EXPERIMENTAL PROTOCOL: Hygroscopicity test by DVS, 25° C. and 90% RH
- Type: physicochemical
- MEASUREMENT PARAMETERS: moisture sorption
READOUT KIND: Weight percent gain (%)

N#Cc1ccc(COc2cccc(N3CCN(Cc4nc5ccc(C(=O)[O-])cc5n4C[C@@H]4CCO4)CC3)n2)nc1.[K+] [Comparative Example 4] = 5.97

A = N#Cc1ccc(COc2cccc(N3CCN(Cc4nc5ccc(C(=O)O)cc5n4C[C@@H]4CCO4)CC3)n2)nc1 [Example 3]
B = N#Cc1ccc(COc2cccc(N3CCN(Cc4nc5ccc(C(=O)O)cc5n4C[C@@H]4CCO4)CC3)n2)nc1.N=C(N)NCCC[C@H](N)C(=O)O [Comparative Example 2]
C = CNC[C@H](O)[C@@H](O)[C@H](O)[C@H](O)CO.N#Cc1ccc(COc2cccc(N3CCN(Cc4nc5ccc(C(=O)O)cc5n4C[C@@H]4CCO4)CC3)n2)nc1 [Comparative Example 3]
Query :: Arrange these 3 compounds in increasing order of Weight percent gain (%). // ordering of labels required in reply
Result :: A, B, C
